% Inhibition values by entry
Test system: P. falciparum stage V gametocytes
Set-up: BacTiter-Glo ATP luminescence viability of purified stage V gametocytes in 384-well plates, per cent inhibition versus DMSO
Settings: 48 h, 5 µM; inhibitor
About 3,200 (25%) of roughly 13,000 compounds showed an effect of 50% or more. The list shows a part of the results.
Endpoint name: % Inhibition (%)

                                   molecule  endpoint_name  value_observed
0  CC[C@H]1CN2CCc3cc(OC)c(OC)cc3[C@@H]2C[C@@H]1C[C@H]1NCCc2c1cc(OC)c(O)c2I   % Inhibition           88.82
1  Cc1nc(C)c(-c2ccc(Oc3ccc(OC(F)(F)F)cc3)cc2)c(OC(=O)N(CCNC(C)C)C(C)C)c1Br   % Inhibition             109
2  COCCSc1ccc(CC(C)NCC(O)c2cccc(Cl)c2)cc1 (stereo not shown)   % Inhibition           22.33
3  CC[C@H]1CN2CCc3cc(OC)c(OC)cc3[C@@H]2C[C@@H]1C[C@H]1NCCc2c1cc(OC)c(OC)c2Br   % Inhibition           73.47

---

Test system: P. falciparum stage V gametocytes
Design: BacTiter-Glo ATP luminescence viability of purified stage V gametocytes in 384-well plates, per cent inhibition versus DMSO
Conditions: 48 h, 5 µM; inhibitor
Among all 13,000 compounds or so, about 3,200 (25%) showed an effect of 50% or more. The list shows a part of the results.
Endpoint name: % Inhibition (%)

>>> print(df.to_string())
                                   molecule  value_observed
0  CNCCCN(C)C(=O)Oc1c(Br)c(C)nc(C)c1-c1ccc(Oc2ccc(OC(F)(F)F)cc2)cc1 [TCMDC-132416]           117.8
1  CNCCN(C)C(=O)Oc1c(Cl)c(C)nc(C)c1-c1ccc(Oc2ccc(OC(F)(F)F)cc2)cc1 [TCMDC-137384]           42.19
2  CNCCN(C)C(=O)Oc1c(Br)c(C)nc(C)c1-c1ccc(Oc2ccc(OC(F)(F)F)cc2)cc1 [TCMDC-137377]           86.68
